system: Staphylococcus sp.; assay: in vitro antibacterial evaluation, MIC by broth dilution; format: cell-based; conditions: broth dilution, 18 hours at 35° C.
Quick reference for MIC Staphylococcus aureus (GC 1131) among some compounds
observationType: MIC Staphylococcus aureus (GC 1131) (µg/mL)

compound: Cc1ccc(CC2OCC3OC(OC4C(CO)OC(Oc5ccc(CC6NC(=O)C(C(C)c7ccccc7)NC(=O)CNC(=O)C(CO)NC(=O)C(C(O)C7CNC(=N)N7C7OC(CO)C(O)C(O)C7O)NC(=O)C(C(O)C7CNC(=N)N7)NC6=O)cc5)C(O)C4O)C(O)C(O)C3O2)cc1 (stereo not shown) [Example 119]
targetOrSystem: Staphylococcus sp.
quantitativeReadout: 1

compound: COc1ccc2cc(COC3C(OC4C(CO)OC(Oc5ccc(CC6NC(=O)C(C(C)c7ccccc7)NC(=O)CNC(=O)C(CO)NC(=O)C(C(O)C7CNC(=N)N7C7OC(CO)C(O)C(O)C7O)NC(=O)C(C(O)C7CNC(=N)N7)NC6=O)cc5)C(O)C4O)OC(CO)C(O)C3O)ccc2c1 (stereo not shown) [Example 230c]
targetOrSystem: Staphylococcus sp.
quantitativeReadout: 128

compound: CC(c1ccccc1)C1NC(=O)CNC(=O)C(CO)NC(=O)C(C(O)C2CNC(=N)N2C2OC(CO)C(O)C(O)C2O)NC(=O)C(C(O)C2CNC(=N)N2)NC(=O)C(Cc2ccc(OC3OC(CO)C(OC4OC5COC(c6cccc(O)c6)OC5C(O)C4O)C(O)C3O)cc2)NC1=O (stereo not shown) [Example 136]
targetOrSystem: Staphylococcus sp.
quantitativeReadout: 16

compound: COc1ccc(COCC2OC(OC3C(CO)OC(Oc4ccc(CC5NC(=O)C(C(C)c6ccccc6)NC(=O)CNC(=O)C(CO)NC(=O)C(C(O)C6CNC(=N)N6C6OC(CO)C(O)C(O)C6O)NC(=O)C(C(O)C6CNC(=N)N6)NC5=O)cc4)C(O)C3O)C(O)C(O)C2O)cc1OCc1ccccc1 (stereo not shown) [Example 239]
targetOrSystem: Staphylococcus sp.
quantitativeReadout: 2
